// provenance: paper PMC9841532

Give % at 1 μM hA3 (percentage displacement of specific binding) for every item shown.
Target: hA3AR (Homo sapiens, UniProt P0DMS8)
Construct: expressed in transfected cells; host or cells: HeLa (HeLa-A3) cell membranes
Sequence (P0DMS8 1-318): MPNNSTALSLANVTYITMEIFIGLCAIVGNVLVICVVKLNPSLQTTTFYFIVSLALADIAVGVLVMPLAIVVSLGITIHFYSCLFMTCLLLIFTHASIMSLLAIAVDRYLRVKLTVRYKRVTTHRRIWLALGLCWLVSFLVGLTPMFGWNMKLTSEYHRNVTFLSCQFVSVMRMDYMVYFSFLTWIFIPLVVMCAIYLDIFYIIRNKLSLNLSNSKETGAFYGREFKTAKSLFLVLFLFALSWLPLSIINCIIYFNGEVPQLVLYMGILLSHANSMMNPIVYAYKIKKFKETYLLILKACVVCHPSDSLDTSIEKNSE
Experiment: Radioligand binding competition, [3H]NECA, membranes from HeLa-A3 cells
Settings: 1 μM, [3H]NECA, human HeLa cells, n = 2
The response must be a number in % with no trailing unit.

Recall the recorded % at 1 μM hA3 (percentage displacement of specific binding) for CCOC(=O)C1=C(C)Nc2nc3ccc(Cl)cc3n2C1c1ccoc1 (stereo not shown) [15k] with hA3AR (Homo sapiens, UniProt P0DMS8) and state it.
3

Recall the recorded % at 1 μM hA3 (percentage displacement of specific binding) for CCOC(=O)C1=C(C)Nc2nc3ccc(Br)cc3n2C1c1cccs1 (stereo not shown) [15u] with hA3AR (Homo sapiens, UniProt P0DMS8) and state it.
4

Recall the recorded % at 1 μM hA3 (percentage displacement of specific binding) for CC1=C(C(=O)OC(C)C)C(c2ccsc2)n2c(nc3ccc(Cl)cc32)N1 (stereo not shown) [15p] with hA3AR (Homo sapiens, UniProt P0DMS8) and state it.
3

Recall the recorded % at 1 μM hA3 (percentage displacement of specific binding) for CCOC(=O)C1=C(C)Nc2nc3cc(Cl)ccc3n2[C@H]1c1cocn1 [(R)-18c] with hA3AR (Homo sapiens, UniProt P0DMS8) and state it.
15

Recall the recorded % at 1 μM hA3 (percentage displacement of specific binding) for CCOC(=O)C1=C(C)Nc2nc3ccc(Cl)cc3n2C1c1ccco1 (stereo not shown) [15i] with hA3AR (Homo sapiens, UniProt P0DMS8) and state it.
4

Recall the recorded % at 1 μM hA3 (percentage displacement of specific binding) for CCOC(=O)C1=C(C)Nc2nc3cc(Cl)ccc3n2C1c1ccsc1 (stereo not shown) [16o] with hA3AR (Homo sapiens, UniProt P0DMS8) and state it.
8

Recall the recorded % at 1 μM hA3 (percentage displacement of specific binding) for CC1=C(C(=O)OC(C)C)C(c2cccs2)n2c(nc3ccc(Br)cc32)N1 (stereo not shown) [15v] with hA3AR (Homo sapiens, UniProt P0DMS8) and state it.
8

Recall the recorded % at 1 μM hA3 (percentage displacement of specific binding) for CC1=C(C(=O)OC(C)C)C(c2cocn2)n2c(nc3ccc(Cl)cc32)N1 (stereo not shown) [17d] with hA3AR (Homo sapiens, UniProt P0DMS8) and state it.
20

Recall the recorded % at 1 μM hA3 (percentage displacement of specific binding) for CC1=C(C(=O)OC(C)C)C(c2ccco2)n2c(nc3ccc(F)cc32)N1 (stereo not shown) [15b] with hA3AR (Homo sapiens, UniProt P0DMS8) and state it.
5

Recall the recorded % at 1 μM hA3 (percentage displacement of specific binding) for CCOC(=O)C1=C(C)Nc2nc3cc(Cl)ccc3n2C1c1ccco1 (stereo not shown) [16i] with hA3AR (Homo sapiens, UniProt P0DMS8) and state it.
4
